Values compiled from PubChem BioAssay (NCI).

Measured TGI of individual entries
Tested on: NCI-H460 lung
measurement-notes: NCI tumour cell line growth inhibition, 48 h
quantity-kind: TGI

compound	test-system	result
CCc1ccc2c(c1)C(=O)c1c-2n(CCCBr)c(=O)c2cc([N+](=O)[O-])ccc12	NCI-H460 lung	> 50 µM
O=C1N(Cl)C(=O)C(c2ccc(Cl)cc2)(c2ccc(Cl)cc2)N1Cl	NCI-H460 lung	> 100 µM
Cc1ccc(-c2nnc(-c3ccc4ccccc4c3)o2)cc1	NCI-H460 lung	> 100 µM
C1=CC2C=CC(C=C1)P2c1ccccc1 (centres undefined)	NCI-H460 lung	> 100 µM

###

System: UACC-62 melanoma
measurement-notes: NCI tumour cell line growth inhibition, 48 h
Below, each entry is listed with its recorded TGI.

compound	test-system	TGI
CC[C@@]12CCCN3CC[C@]4(c5cccc(OC)c5N(C(C)=O)[C@@H]4CC1)[C@H]32	UACC-62 melanoma	> 100 µM
COC(=O)[C@@H](C)C[C@H](Cc1ccc(F)cc1)NC(=O)c1csc([C@@H](C[C@H](C(C)C)N(C)C(=O)[C@@H](NC(=O)[C@H]2CCCCN2C)C(C)C)OC(C)=O)n1	UACC-62 melanoma	> 16.7 µM
O=c1c2cccnc2n2n1Cc1ccccc1C2	UACC-62 melanoma	> 100 µM
Cc1ccc(-c2nnc(-c3ccc4ccccc4c3)o2)cc1	UACC-62 melanoma	> 85.6 µM
O=C1NC(N/N=C/c2ccccc2)=N/C1=C\c1ccco1	UACC-62 melanoma	> 100 µM
C=CCC1(O)CC(n2cc(C)c(=O)[nH]c2=O)OC1CO[Si](C)(C)C(C)(C)C (stereo unspecified)	UACC-62 melanoma	> 100 µM
COc1ccc2c(c1)C1(C=N2)CCN(C(C)=O)CC1	UACC-62 melanoma	> 100 µM
COC1(c2ccc(Cl)cc2)SC=C(C)n2c1noc2=O (stereo unspecified)	UACC-62 melanoma	> 100 µM
CSC(=N/C=C/c1ccccc1)SC	UACC-62 melanoma	> 100 µM
COc1c2c(cc3c1C(=O)c1c(O)cccc1C3=O)CC(O)CC2 (stereo unspecified)	UACC-62 melanoma	> 100 µM
CC(=O)N1[C@H](C(=O)O)CS[C@H]1c1ccncc1	UACC-62 melanoma	> 100 µM

###

Tested on: SW-620 colon
measurement-notes: NCI tumour cell line growth inhibition, 48 h

compound	GI50
Cc1cnc(NC(=O)C(Cc2ccccc2)NC(=O)c2ccccc2)s1 (stereo not drawn)	14 µM
O=c1n(CC2CO2)c(=O)n(CC2CO2)n1CC1CO1 (stereo not drawn)	22.5 µM
C[C@@H](CS(C)(=O)=O)Nc1ncc2cc(Oc3ccc(F)cc3F)c(=O)n(C)c2n1	> 25 µM

###

System: SR leukemia
measurement-notes: NCI tumour cell line growth inhibition, 48 h
quantity-kind: TGI

molecule	result
C=C(CNCCO)[C@@H]1CC[C@]2(CO)CC[C@]3(C)[C@H](CC[C@@H]4[C@@]5(C)CCC(N)C(C)(C)[C@@H]5CC[C@]43C)[C@@H]12 (some centres not stated)	5.22 µM
CC1=NN(c2nc(N)nc(/C(C#N)=C/c3ccccc3O)n2)C(C)(C)C1	> 100 µM
CN(C)c1ccc(C2CC(c3ccc4ccccc4c3O)=NN2)cc1 (configuration not stated)	51.7 µM
COc1cc2c(c(OC)c1O)-c1ccc(SC)c(=O)cc1C(NC(C)=O)CC2 (configuration not stated)	> 100 µM
O=C(CSC(=S)N1CCCCC1)Nc1nc2c(s1)CCCC2	> 100 µM
FC(F)(F)c1ccc(C2SCc3nc4ccccc4n32)cc1 (configuration not stated)	> 100 µM
O=[S@@]1Nc2ccc(Br)cc2S1	> 100 µM
N=C(N)c1ccc(/C=C/c2ccc(C(=N)N)cc2)cc1	> 100 µM
O=C1/C(=C/c2ccc([N+](=O)[O-])cc2)COc2ccc(O)c(O)c21	> 100 µM
S=C(N1CCN(c2ccc(Cl)c(Cl)c2)CC1)N1CCN(c2ccc(Cl)c(Cl)c2)CC1	5.82 µM
O=C1NC2(CCCCC2)C2CCCCC(O)C12 (configuration not stated)	> 100 µM
CN1Cc2ccccc2S(=O)(=O)n2cccc2C1=O	> 100 µM
